Hello, the source for this data is PubChem BioAssay (NCI), in case you need it.

System: COLO 205 colon
ASSAY NAME: NCI tumour cell line growth inhibition, 48 h
RECORDED ENDPOINT: TGI

Please review the entries below; each comes with its answer.
MOLECULE: C[C@@H](c1ccccc1)N1CN(C(=O)OCc2ccccc2)C(C)(C)CC1=O
REPORTED VALUE: > 100 µM
//
MOLECULE: CCOC(=O)/C=C/n1c2ccccc2c(=O)c2ccccc21
REPORTED VALUE: > 100 µM
//
MOLECULE: CNC(=O)OCc1c(CO)nc(SC)n1C
REPORTED VALUE: > 100 µM

Attention now turns to another entry.
## Task So what does the record say about TGI for CN1CCN(c2ncc3c(n2)sc2c(=O)n(-c4ccccc4)cnc23)CC1 ?
## Result > 100 µM

* * *

In this section we review reported TGI values for a set of compounds.
Test system: ACHN renal
ASSAY NAME: NCI tumour cell line growth inhibition, 48 h

Please review the following examples before continuing.
COMPOUND: C[C@H](NC(=O)c1ccc(CNC(=O)/C=C/c2cccc(Oc3ccccc3)c2)cc1)c1ccccc1
TGI: > 100 µM

COMPOUND: O=c1cc(-c2ccccc2F)[nH]c2ccc(N3CCCC3)cc12
TGI: > 100 µM

COMPOUND: Cc1ccc([N+](=O)[O-])cc1NC(=O)/C(=N/NC(=S)NN)C1SC(=S)NC1=O (stereo unspecified)
TGI: > 100 µM

## Task Which TGI is listed for O=C(O/C(=C(/N=Nc1ccccc1)c1ccccc1)c1ccccc1)c1ccccc1 ?
## Result > 100 µM

## Task // TGI lookup, key: NC(=O)c1c(NC(=O)c2ccccn2)sc2c1CCC(=O)C2
## Result > 100 µM

## Task Dear colleague, I am looking for the recorded TGI of the following compound: O=C(CC(=O)C1=CNc2ccccc2S1)C(=O)Nc1ccc(Cl)cc1
## Result > 50 µM

* * *

Listing of entries alongside the reported TGI.
Tested on: SW-620 colon
ASSAY NAME: NCI tumour cell line growth inhibition, 48 h

COMPOUND: COc1ccc(N=Cc2ccc(N(CCC#N)S(=O)(=O)c3ccccc3)cc2)cc1
SYSTEM NAME: SW-620 colon
TGI: > 100 µM

COMPOUND: COC(=O)CNS(=O)(=O)c1ccc(-c2c3nc(c(-c4ccc(S(=O)(=O)NCC(=O)OC)cc4)c4ccc([nH]4)c(-c4ccc(S(=O)(=O)NCC(=O)OC)cc4)c4nc(c(-c5ccc(S(=O)(=O)NCC(=O)OC)cc5)c5ccc2[nH]5)C=C4)C=C3)cc1
SYSTEM NAME: SW-620 colon
TGI: > 100 µM

## Task Record request: TGI value, item N#C/C(c1nc2ccccc2[nH]1)=c1\s/c(=C/c2ccc(Cl)cc2)c(=O)n1-c1ccccc1
## Result > 100 µM

## Task Field request: TGI | item: CC(C)OCC1CC(CC(=O)Nc2nncs2)C(=O)O1 (stereo not given)
## Result > 100 µM

## Task Find the recorded TGI belonging to COc1cc([C@@H]2c3cc4c(cc3[C@@H](OC(=O)c3ccc(N)cc3)C3COC(=O)[C@@H]32)OCO4)cc(OC)c1O (stereo not given in full) and report it.
## Result > 95 µM

* * *

Measured TGI values are reported for all entries that follow.
Test system: M14 melanoma
ASSAY NAME: NCI tumour cell line growth inhibition, 48 h

COMPOUND: Cc1cccc(N(C(=O)Nc2ccc(Cl)c(Cl)c2)C2=NCC(C)S2)c1 (stereo not given)
TGI: > 100 µM
//
COMPOUND: C=CCC1(OC(C)=O)C2OC(=O)C1(O)OCC2O (stereo not given)
TGI: > 100 µM
//
COMPOUND: Clc1cc(Cl)cc(C=NC23CC4CC(CC(C4)C2)C3)c1
TGI: > 10 µM
//
COMPOUND: COc1ccc(-n2c(=O)[nH]n(C(C)=O)c2=O)cc1
TGI: > 100 µM

## Task Fill in: TGI of CCOc1ccc(/C(Cl)=C(\C=O)c2ccc(OC)c(OC)c2)cc1OCC is ___
## Result > 100 µM

* * *

Tested on: HS 578T breast
ASSAY NAME: NCI tumour cell line growth inhibition, 48 h
RECORDED ENDPOINT: TGI

MOLECULE: COc1ccc(-n2c(=O)[nH]n(C(C)=O)c2=O)cc1
TGI: > 100 µM
--
MOLECULE: C/C=C\C(CC(=O)NCCC1CN(S(=O)(=O)c2ccc(C)cc2)c2ccccc21)CC(=O)OC (centres undefined)
TGI: > 100 µM
--
MOLECULE: COc1cccc(C2=C(c3c(C)n(C)c4ccccc34)C(=O)NC2=O)c1
TGI: > 25 µM
--
MOLECULE: COC(=O)c1ccccc1OCc1cc(=O)oc2ccc(C)cc12
TGI: > 100 µM
--
MOLECULE: c1ccc(CN2CCC3(CC2)SSC2(CCN(Cc4ccccc4)CC2)S3)cc1
TGI: > 100 µM
--
MOLECULE: C=CCC1(OC(C)=O)C2OC(=O)C1(O)OCC2O (centres undefined)
TGI: > 100 µM
--
MOLECULE: Cc1cccc(CP(Cc2cccc(C)c2)CC2(Cp3c4ccccc4c4ccccc43)COC2)c1
TGI: > 100 µM
--
MOLECULE: NC(=O)c1ccc(I)c(N=O)c1
TGI: > 100 µM

## Task For CC(=O)C(=Cc1ccc(C=C(C(C)=O)C(C)=O)cc1)C(C)=O , what is its reported TGI?
## Result 22.6 µM

## Task Item COc1cc(-c2cc(-c3ccccc3)nc(-c3c(OC)ccc4c(C)cc(=O)oc34)c2)cc(OC)c1OC has what recorded TGI?
## Result > 100 µM

## Task Form field: reported TGI of CN1CCN(CCOc2ccc(-c3cnc4c(-c5ccc(C(F)(F)F)cc5)cnn4c3)cc2)CC1
## Result 3.41 µM

## Task Reported TGI, molecule C[C@H](NC(=O)c1ccc(CNC(=O)/C=C/c2cccc(Oc3ccccc3)c2)cc1)c1ccccc1 : ____
## Result > 100 µM

## Task Entry under review: Nc1ccc2c(SCc3ccc([N+](=O)[O-])cc3)c3ccccc3nc2c1 . Reported TGI?
## Result 48 µM

## Task Query (molecule): COc1cc2c3c(n(CCCCN)c(=O)c2cc1OC)-c1cc2c(cc1C3=O)OCO2 ; field requested: TGI
## Result 11.8 µM

* * *

As shown below, each of these compounds has a reported TGI value.
Test system: OVCAR-5 ovarian
ASSAY NAME: NCI tumour cell line growth inhibition, 48 h

COMPOUND: CN(C)CCN(C)c1ccc2c(=O)n(CCN(C)C)c(=O)n3c4ccccc4c(=O)c1c23
REPORTED VALUE: 12.1 µM

## Task Given the entry CC(=O)Oc1ccc(-c2cc3ccccc3oc2=O)cc1 , report its measured TGI.
## Result > 100 µM

## Task What does the record list as TGI for CCCCCCC(=O)O[C@H]1CC[C@H]2[C@@H]3CCC4C/C(=N/NC(=O)c5cccc6c(=O)c7ccccc7[nH]c56)C=C(C)[C@]4(C)[C@H]3CC[C@]12C (stereo not given in full) ?
## Result > 25 µM

## Task State the recorded TGI for this entry: N#CC(=C1CCN(CCCC(=O)c2ccc(F)cc2)CC1)c1ccccc1
## Result > 100 µM

## Task Fill blank: measured TGI of the compound CC(=O)OCC1OC(c2nc3ccccc3s2)=CC(OC(C)=O)C1OC(C)=O (stereo not given) is ____.
## Result > 100 µM

* * *

System: NCI-H522 lung
ASSAY NAME: NCI tumour cell line growth inhibition, 48 h; in the data active = GI50 below about 0.43 µM; inactive = the rest
The reply should be one of these categories: class 1 = active, class 0 = inactive

Study these solved cases before continuing.
COMPOUND: COc1ccc(C(=O)/C=C/c2cccc([N+](=O)[O-])c2)c(OC)c1
CLASS: class 0

COMPOUND: CCCc1cc(=O)[nH]c(-n2nc(C)cc2C)n1
CLASS: class 0

COMPOUND: CCCCCCCCC/C=C/C=C/C(=O)NCC(=O)NC1C(O)C(O)C(Nc2ncnc3nc[nH]c23)OC1C(O)CO (stereo not given)
CLASS: class 1

## Task I'd appreciate the recorded outcome for O=c1oc(Cl)c(Cl)c2ccccc12 from this test.
## Result class 0

## Task Each compound tested received a call. Report the one for CCn1cnc(C[C@H](NC(=O)[C@@H](NC(=O)Nc2cc(C(F)(F)F)cc(C(F)(F)F)c2)C(C)C)C(=O)OC)c1 .
## Result class 0

* * *

Examples of compounds with documented TGI follow.
Tested on: SN12C renal
ASSAY NAME: NCI tumour cell line growth inhibition, 48 h

Some entries whose results are on file:
COMPOUND: O=c1cccccc1[O-].O=c1cccccc1[O-].[O]=[U+2]=[O]
TGI: 63.2 µM

COMPOUND: COc1cc2c(ccc3c4cc(OC)c(OC)cc4c[n+](C)c23)cc1O
TGI: 22.1 µM

COMPOUND: CC(C)(C)c1cc(C2=NNC(c3ccccc3)C2)cc(C(C)(C)C)c1O (centres undefined)
TGI: 32.7 µM

COMPOUND: CC(C)=CCC/C(=C/CC/C(=C\CCc1ccoc1)C(=O)O)C(=O)O
TGI: > 100 µM

COMPOUND: Nc1nc(SCCc2ccccc2)nc2nc3c(c(-c4ccccc4)c12)CCCC3
TGI: > 100 µM

## Task Quick check: TGI of N#CC(=C1CCN(CCCC(=O)c2ccc(F)cc2)CC1)c1ccccc1 ?
## Result > 100 µM

## Task Can you look up the measured TGI of COC(=O)CNS(=O)(=O)c1ccc(-c2c3nc(c(-c4ccc(S(=O)(=O)NCC(=O)OC)cc4)c4ccc([nH]4)c(-c4ccc(S(=O)(=O)NCC(=O)OC)cc4)c4nc(c(-c5ccc(S(=O)(=O)NCC(=O)OC)cc5)c5ccc2[nH]5)C=C4)C=C3)cc1 for me?
## Result > 100 µM
